Experiment: Cassette dosing oral pharmacokinetics in ICR mice
Type: in vivo
Settings: ICR (IcrTac:ICR), mouse; cassette oral dose 25 mg/kg, female ICR mice, plasma, 0-8 h, none in table
// NB: equality with 2000 ng·h/mL counts as false (0); only AUC(0-t) strictly below is true (1)

Exercise: Record Cn1c2ccccc2n2c3nc(N4CCOCC4)c(F)cc3c(=O)c(C(=O)N3CCN4CCCC4C3)c12 (stereo not shown) : is its AUC(0-t) strictly below 2000 ng·h/mL?
Key: false (0)

Exercise: Now this one: O=C(NCCNC1CCC1)c1c(=O)c2ccc(N3CCOCC3)nc2n2c1sc1ccccc12
Key: false (0)

Exercise: Follow-up item: Cc1nccn1CCNC(=O)c1c(=O)c2ccc(N3CCOCC3)nc2n2c1sc1ccccc12
Key: false (0)

Ref: patent US8853234B2
